Target: T1, human calcitonin receptor (human, UniProt P30988 25-474)
T1 sequence (looked up): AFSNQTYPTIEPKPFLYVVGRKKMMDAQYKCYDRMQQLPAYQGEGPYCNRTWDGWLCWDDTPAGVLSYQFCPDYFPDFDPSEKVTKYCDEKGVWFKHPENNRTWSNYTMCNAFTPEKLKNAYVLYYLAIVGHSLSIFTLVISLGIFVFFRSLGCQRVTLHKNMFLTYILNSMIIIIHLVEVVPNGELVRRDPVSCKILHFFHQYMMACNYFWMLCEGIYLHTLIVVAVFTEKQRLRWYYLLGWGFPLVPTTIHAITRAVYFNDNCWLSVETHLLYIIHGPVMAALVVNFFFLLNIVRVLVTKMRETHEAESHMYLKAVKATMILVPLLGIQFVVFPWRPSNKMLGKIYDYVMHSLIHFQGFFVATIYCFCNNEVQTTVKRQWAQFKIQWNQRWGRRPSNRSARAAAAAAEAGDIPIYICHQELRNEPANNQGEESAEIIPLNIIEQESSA
Test: cell-based or functional assay
Numbered stars: 1 amine (or outer) side, 2 acyl side, 3 side chain; on linkers, the order of the positions; unused ones are H or OH. Bridge positions count the residues as written; N and C are the ends. Side chains are listed from the residue outwards. Ends that are not written are not given here. * marks the point of attachment. C20 diacid = O=C(O)CCCCCCCCCCCCCCCCCCC(=O)*; γGlu = O=C(O)[C@H](CCC(=O)[*:2])N[*:1]
MEASUREMENT TYPE: hCTR funct. EC50 (nM)

{C20 diacid-γGlu}-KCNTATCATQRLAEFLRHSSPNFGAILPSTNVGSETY-NH2 (disulfide 2-7, also called compound 33); 0.528

P: K([γGlu-C20 diacid])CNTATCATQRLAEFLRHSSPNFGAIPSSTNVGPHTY-NH2 (disulfide 2-7)
Q: K([γGlu-γGlu-C20 diacid])CNTATCATQRLAEFLRHSSPNFGAIPSSTNVGSNTP-NH2 (disulfide 2-7 (inferred), also called compound 13)
R: K([γGlu-γGlu-C20 diacid])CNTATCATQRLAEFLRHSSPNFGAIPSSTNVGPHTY-NH2 (disulfide 2-7 (inferred))
Which order do these items take when sorted by rising hCTR funct. EC50? List them. // rank by listing labels in the order requested
Q, P, R
(Q: 0.47 nM, P: 1.45 nM, R: 2.83 nM)
